- Test name: Cmax of aliskiren hemifumarate following 8 day once-daily dosing of SPP100B oral solution at 160 mg level studied on day 8 in men
- Format: ADME, organism-based
- Condition parameters: male, human, plasma

{"columns": ["Molecule", "Readout units", "Cmax"],
 "data": [
  ["COCCCOc1cc(C[C@@H](C[C@H](N)[C@@H](O)C[C@H](C(=O)NCC(C)(C)C(N)=O)C(C)C)C(C)C)ccc1OC.COCCCOc1cc(C[C@@H](C[C@H](N)[C@@H](O)C[C@H](C(=O)NCC(C)(C)C(N)=O)C(C)C)C(C)C)ccc1OC.O=C(O)/C=C/C(=O)O [ALISKIREN FUMARATE]", "ng/mL", 39.1]
]}
